# assay-target: human enzyme NAMPT (full length) (Homo sapiens, UniProt P43490)
# Construct: human enzyme NAMPT (full length)
# Sequence (P43490 whole entry): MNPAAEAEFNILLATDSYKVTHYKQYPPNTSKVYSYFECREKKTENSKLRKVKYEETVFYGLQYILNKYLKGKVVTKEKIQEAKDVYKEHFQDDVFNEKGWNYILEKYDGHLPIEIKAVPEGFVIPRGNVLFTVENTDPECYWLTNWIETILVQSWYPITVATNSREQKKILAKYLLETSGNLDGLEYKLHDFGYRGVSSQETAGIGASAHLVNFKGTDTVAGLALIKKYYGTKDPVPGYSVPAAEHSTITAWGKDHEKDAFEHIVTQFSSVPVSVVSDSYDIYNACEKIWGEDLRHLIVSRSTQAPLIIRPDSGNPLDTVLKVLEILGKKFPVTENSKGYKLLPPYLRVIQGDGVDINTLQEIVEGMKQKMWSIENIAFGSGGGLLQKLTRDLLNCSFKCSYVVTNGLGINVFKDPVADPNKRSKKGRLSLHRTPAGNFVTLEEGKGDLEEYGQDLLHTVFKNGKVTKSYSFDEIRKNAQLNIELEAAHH
# measurement-notes: NMN fluorescence biochemical assay (stimulation of NMN synthesis by NAMPT)
# particulars: fold change of maximal activation compared to DMSO
measured-property: Enzymatic Emax

Check out these entries, answers already filled in.
What value of Enzymatic Emax has been reported for the following compound? O=c1[nH]c2ccc(Cn3ccc4ccccc4c3=O)cc2o1 [Compound 4] B (3≥B>2)

Moving on to O=C1c2ccc(CN3CCOCC3)cc2C(Cc2ccccc2)N1Cc1ccc2[nH]c(=O)oc2c1 (stereo not drawn) [Compound 123] A (A>3)

Moving on to O=C1c2ccccc2C(Cc2nn(C3COC3)cc2Cl)N1Cc1ccc2[nH]nnc2c1 (stereo not drawn) [Compound 318] A (A>3)

Moving on to CC1c2ccccc2C(=O)N1Cc1cc(F)c2[nH]c(=O)oc2c1 (stereo not drawn) [Compound 89] B (3≥B>2)

Continuing:
What value of Enzymatic Emax has been reported for the following compound? Cn1ncc(Cl)c1CC1c2ccccc2C(=O)N1C/C(F)=C\c1c[nH]nn1 (stereo not drawn) [Compound 515] B (3≥B>2)

Moving on to CCCn1c2ccccc2c(=O)n1Cc1ccc(O)cc1 [Compound 25] A (A>3)

Moving on to COc1ccc(CN2C(=O)c3ccccc3C2(C)Cc2c(Cl)cnn2C)cn1 (stereo not drawn) [Compound 620] B (3≥B>2)

Moving on to Cn1ncc(Cl)c1CC1c2ccccc2C(=O)N1C/C(F)=C/c1c[nH]nc1Cl (stereo not drawn) [Compound 519] B (3≥B>2)

Moving on to Cn1ncc(Cl)c1CC1c2ccccc2C(=O)N1Cc1c[nH]nn1 (stereo not drawn) [Compound 637] B (3≥B>2)
